# Tested on: BT-549 breast
# EXPERIMENTAL_PROTOCOL: NCI-60 one-dose screen, 48 h (100 = growth as untreated, 0 = no growth, -100 = all killed)
# STATED_CONDITIONS: 10 µM
The panel holds about 83,000 compounds, 20% with a hit somewhere; the sample as a whole holds those more often. Calls of active or inactive are those of the source. How the source made its calls: active means growth percent below 10; inactive means the rest.
Documented growth across a set of molecules

Below: 5 molecules and their reported growth.
1. Cc1cc(O)ccc1O
83.5% (inactive)
2. COc1cccc(/C=N/NC(=S)NC2CC3CCC2C3)c1O (stereo not drawn)
79.8% (inactive)
3. CCOc1ccc(I)cc1
116% (inactive)
4. Nc1nc2c(c(-c3nc(N)nc4c3CCc3ccccc3-4)n1)CCc1ccccc1-2
109% (inactive)
5. c1ccc(CN2COc3c(ccc4c3OCN(Cc3ccccc3)C4)C2)cc1
12.6% (inactive)

In: Can you share its growth? I mean this molecule: `C[C@]12CC[C@@H]3c4ccc(OCC(=O)O)cc4CC[C@H]3[C@@H]1CCC2=O`
Out: 102% (inactive)

In: # query: growth of entry `CCCCC1C(=O)N(c2ccccc2)N(c2ccccc2)C1=O`
Out: 98.8% (inactive)

* * *

# System: OVCAR-8 ovarian
# EXPERIMENTAL_PROTOCOL: NCI-60 one-dose screen, 48 h (100 = growth as untreated, 0 = no growth, -100 = all killed)
# STATED_CONDITIONS: 10 µM
Compounds without any hit were thinned out: in the full panel of roughly 83,000, 20% have a hit.
OBSERVED_PROPERTY: growth (%)
Express it in %; write the number only.

Known growth results, listed for orientation:
1) CN(C)CCN(Cc1ccccc1)c1ccccc1
115
2) C/C(=C\c1ccc([N+](=O)[O-])cc1)C(=O)O
99.2
3) COc1cccc(/C=N/NC(=S)NC2CC3CCC2C3)c1O (stereo not given)
40.5
4) N#CCCc1ccc(O)cc1
93.9

Attention now turns to another entry.
In: May I ask what growth has been recorded for COc1ccc(C(C)C=O)cc1 (stereo not given) ?
Out: 109

* * *

# Tested on: OVCAR-4 ovarian
# EXPERIMENTAL_PROTOCOL: NCI-60 one-dose screen, 48 h (100 = growth as untreated, 0 = no growth, -100 = all killed)
# STATED_CONDITIONS: 10 µM
The panel holds about 83,000 compounds, 20% with a hit somewhere; the sample as a whole holds those more often.
As shown below, each of these compounds has a reported growth value.
Please state the figure in %; there is no need to write the unit.

1. CC1SC(N)=NC1=O (stereo not given)
117
2. COc1nc(N)nc2c1ncn2C1OC(CO)CC1O (stereo not given)
120
3. O=C(O)C(Cc1ccccc1)C(=O)O
96.3

In: What measured growth goes with `CCc1nn(Cc2ccccc2)c2nc(C)c(CCc3ccccc3)c(Cl)c12` ?
Out: 86.2

In: Which measured growth value corresponds to C/C=C/CC(C)C(O)C1C(=O)NC(CC)C(=O)N(C)CC(=O)N(C)C(CC(C)C)C(=O)NC(C(C)C)C(=O)N(C)C(CC(C)C)C(=O)NC(C)C(=O)NC(C)C(=O)N(C)C(CC(C)C)C(=O)N(C)C(CC(C)C)C(=O)N(C)C(C(C)C)C(=O)N1C (stereo not given) ?
Out: 29.9

* * *

# System: SK-MEL-2 melanoma
# EXPERIMENTAL_PROTOCOL: NCI-60 one-dose screen, 48 h
# STATED_CONDITIONS: 10 µM
Compounds without any hit were thinned out: in the full panel of roughly 83,000, 20% have a hit. Active and inactive are the calls of the source. Rule for the calls: active = growth percent below 10; inactive = the rest.
Permitted responses: T = active, F = inactive

Here are 3 compounds together with their reported answers.
1) CC(=O)OCC(=O)[C@@]1(O)CC[C@H]2[C@@H]3CC[C@@H]4C[C@H](O)CC[C@]4(C)[C@H]3C(=O)C[C@@]21C
F
2) c1ccc2c(c1)Sc1ccccc1S2
F
3) COC(=O)c1ccc(NC(=O)CCl)cc1
F

In: Hi, sorry to bother you, what did the test record for COc1ccc(C2OC(N)=C(O)C2=O)cc1OC (stereo unspecified) ?
Out: F

In: Field: outcome | Entry: `CC1(C)N=C(N)N=C(N)N1c1ccc(Cl)cc1`
Out: F

In: Please let me know the test result on file for O=C1OC(=O)C2C1C1(Cl)C(Cl)=C(Cl)C2(Cl)C2C(=O)OC(=O)C21 (stereo unspecified) .
Out: F

In: Would you mind telling me which call this test gave `O=C1c2ccccc2C(=O)c2c1ccc(C(=O)O)c2[N+](=O)[O-]` ?
Out: F

In: Can you look up the reported call for `CCO/C=C1\SC(=S)N(c2cccc(C)c2)C1=O` for me?
Out: F

* * *

# Tested on: OVCAR-4 ovarian
# EXPERIMENTAL_PROTOCOL: NCI-60 one-dose screen, 48 h (100 = growth as untreated, 0 = no growth, -100 = all killed)
# STATED_CONDITIONS: 10 µM
Compounds without any hit were thinned out: in the full panel of roughly 83,000, 20% have a hit.
OBSERVED_PROPERTY: growth (%)
# output: bare number, implied unit %

1) CC(C)COC(=O)COC(=O)OCCOCCOC(=O)OCC(=O)OCC(C)C
110
2) CC1CCCCN1C(=S)Nc1ccc(S(=O)(=O)N2CCCCC2)cc1 (configuration not stated)
90.4
3) NC(CSC(c1ccccc1)(c1ccccc1)c1ccccc1)C(=O)O (configuration not stated)
74.6
4) COc1cccc(COC(=O)Nc2ccccc2)c1OC
117
5) CC1(O)OC(COc2ccc(Cl)cc2)COC1O (configuration not stated)
99.1

In: Form field - read-out: growth; system: OVCAR-4 ovarian; submitted item: `O=C(NC1CCCCC1)OCc1c(COC(=O)NC2CCCCC2)c(-c2ccc(Cl)c(Cl)c2)n2c1CCC2`
Out: 11.5

In: Observed growth on OVCAR-4 ovarian for `COc1cc(OC)c2ccc(=O)oc2c1` , please.
Out: 107

In: For the record `CCOC(=O)c1cc2cccc(OC)c2oc1=O` , what value of growth is listed for OVCAR-4 ovarian?
Out: 109

In: Fill in the recorded growth for this compound, with OVCAR-4 ovarian as test system: `CC(C)=NNc1ccc([N+](=O)[O-])cc1[N+](=O)[O-]`
Out: 96.5

In: Identify the measured growth of `C[C@]12CC[C@@H]3c4ccc(OCC(=O)O)cc4CC[C@H]3[C@@H]1CCC2=O` for OVCAR-4 ovarian.
Out: 95.8

In: Enter reported growth observed with OVCAR-4 ovarian for Oc1ccc2c(c1)OCC1(O)Cc3cc(O)c(O)cc3C21 (configuration not stated)
Out: 38.2

In: Form entry - test system: OVCAR-4 ovarian; read-out: growth; compound: `CCOc1ccc(I)cc1`
Out: 109

* * *

Below is a list of entries, each paired with its recorded growth value.
# Test system: SW-620 colon
# EXPERIMENTAL_PROTOCOL: NCI-60 one-dose screen, 48 h (100 = growth as untreated, 0 = no growth, -100 = all killed)
# STATED_CONDITIONS: 10 µM
# Procedure: Growth inhibition of the SW-620 human tumor cell line is measured as a screen for anti-cancer activity. Cells are grown in 96 well plates and exposed to the test compound for 48 hours. Compounds are tested at a single concentration, which is 10^-5 M for most compounds. The reported endpoint is percent growth (GI% or GIPRCNT), where numbers from 0 - 100% represent growth inhibition, and numbers from -100% - 0 represent cell death. For example, a value of 40 represents 60% growth inhibition. […]
Compounds without any hit were thinned out: in the full panel of roughly 83,000, 20% have a hit.
Return type: number; implicit unit %.

1) COc1ccc(OC)c(/C=C2\CCc3ccccc3C2=O)c1
17.4
2) CCOC(=O)C(CCC(C)C)C(=O)OCC
102
3) CCOC(=O)C(O)C(O)C(=O)OCC (stereo not drawn)
101
4) c1ccc2c(N3CCCCC3)ncnc2c1
98

In: Form: Entry = CC12CC3CC1C(C(=O)O2)C3C(=O)O (stereo not drawn) | System = SW-620 colon | growth = ____
Out: 102

In: Value wanted: growth (SW-620 colon) of entry `CCOC(=O)c1coc(C(=O)OCC)c1C(=O)OCC`
Out: 113

In: For the record `CC(=O)C1CCCCC1` , what value of growth is listed for SW-620 colon?
Out: 100

In: Quick check: growth on SW-620 colon, item `CC1(C)OC(=O)C(c2ccsc2)C(=O)O1` ?
Out: 108

* * *

# Test system: ACHN renal
# EXPERIMENTAL_PROTOCOL: NCI-60 one-dose screen, 48 h
# STATED_CONDITIONS: 10 µM
This is part of a sample that, as a whole, favours compounds with a hit. Of some 83,000 tested, about 20% had one in any assay. Calls of active or inactive are those of the source. How the source made its calls: active means growth percent below 10; inactive means the rest.
Hi! Could you answer with just one of these? Yes = active, No = inactive

# count of solved cases: 4
1) CSC[C@H](NC(=O)COc1cccc2cnccc12)C(=O)NC(Cc1ccccc1)C(O)C(=O)N1CSC[C@H]1C(=O)NC(C)(C)C (some centres not stated)
No
2) COC(=O)/C=C1\Sc2cc(F)ccc2NC1=O
No
3) CC(C)OC(=O)c1cc(NC(=S)OC(C)C)ccc1Cl
No
4) CCCCCC(C)(CC(=O)O)CC(=O)O
No

In: Query: recorded result category for `CN(C)C(=O)Oc1cccc([N+](C)(C)C)c1` in this test
Out: No

In: Just curious, what result did O=C1C=CC2=C3c4cc(O)c(O)cc4CC3(O)COC2=C1O (configuration not stated) get here?
Out: No

In: I would be grateful if you could indicate the recorded call for COc1ccc(C2OC(N)=C(O)C2=O)cc1OC (configuration not stated) .
Out: No

In: Assay outcome for `Cc1cc2nc(CC(=O)c3cccc([N+](=O)[O-])c3)c(=O)[nH]c2cc1C` : what was it?
Out: No

In: Dear all, I need the recorded test outcome for `OCCN1CCOCC1` , thank you.
Out: No

In: Please state the recorded outcome for this compound: CC1C(=O)c2ccccc2CC1C(=O)O (configuration not stated)
Out: No

Data origin: PubChem BioAssay (NCI)
